Origin of measurements: patent US12624112

Would you kindly list IC50, inhibition of HUVEC-IL6 production promoted by IL33 for each of these binders?
# MEASUREMENT TARGET: T1, ST2 on the effector cells (KU812, KU812/NF-κB-1#, HUVEC, HMC-1) (human, UniProt Q01638 19-556)
# T1 sequence (looked up): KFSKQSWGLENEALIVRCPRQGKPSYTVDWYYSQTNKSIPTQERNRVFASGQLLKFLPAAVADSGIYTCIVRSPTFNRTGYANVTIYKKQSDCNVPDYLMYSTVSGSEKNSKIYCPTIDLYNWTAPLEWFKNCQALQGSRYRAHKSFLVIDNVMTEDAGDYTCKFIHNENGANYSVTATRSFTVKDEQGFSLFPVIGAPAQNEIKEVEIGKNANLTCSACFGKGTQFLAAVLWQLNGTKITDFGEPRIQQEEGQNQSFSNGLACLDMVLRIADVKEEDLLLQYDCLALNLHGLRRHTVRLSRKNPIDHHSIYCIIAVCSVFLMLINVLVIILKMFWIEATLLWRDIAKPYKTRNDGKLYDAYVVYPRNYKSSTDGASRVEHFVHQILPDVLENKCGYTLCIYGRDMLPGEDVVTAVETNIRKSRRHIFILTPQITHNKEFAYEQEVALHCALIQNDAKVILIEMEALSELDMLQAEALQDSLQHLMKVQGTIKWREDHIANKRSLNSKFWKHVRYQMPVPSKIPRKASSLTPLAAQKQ
# ASSAY METHOD TEXT: cell-based or functional assay
Write it as a number; the unit µg/mL goes unstated.

Enquiry: Which IC50, inhibition of HUVEC-IL6 production promoted by IL33 value belongs to 5888-379-H1L0 (antibody, human IgG4 S228P, kappa, V domains shown, Humanized antibody) VH: QVQLVQSGAEVKKPGASVKVSCKASGYTFINYGMNWVRQAPGQRLEWMGWINTYIGEPTYGDNFKGRVTITRDTSASTAYMELSSLRSEDTAVYYCAREGEGFAYWGQGTLVTVSS VL: DIQMTQSPSSLSASVGDRVTITCKSSQSLLYSGNQNNYLAWYQQKPGKVPKLLIYGASTRESGVPSRFSGSGSGTDFTLTISSLQPEDVATYYCQNDHSYPYTFGGGTKVEIKR ?
Return: 16.1

Enquiry: Likewise for 5888-153-H0L1 (antibody, human IgG4 S228P, kappa, V domains shown, Humanized antibody) VH: QVQLVQSGAEVKKPGASVKVSCKASGYTFTDYELHWVRQAPGQGLEWMGTIDPETGDTVYNQKFKARVTMTRDTSTSTVYMELSSLRSEDTAVYYCARAFYNDYDDGFAYWGQGTLVTVSS VL: EIVMTQSPATLSLSPGERATLSCSVSSSVSYMHWYQQKPGQAPRRLIYDTSKLASGIPARFSGSGSGTDYTLTISSLEPEDAAVYYCQQWNSSPLTFGGGTKVEIKR ?
Return: 0.844

Enquiry: Next record, please: 5888-153-H3L1 (antibody, human IgG4 S228P, kappa, V domains shown, Humanized antibody) VH: QVQLVQSGAEVKKPGASVKVSCKASGYTFTDYELHWVRQAPGQGLEWMGTIDPETGDTVYNQKFKARVTMTADKSTSTAYMELSSLRSEDTAVYYCTRAFYNDYDDAFAYWGQGTLVTVSS VL: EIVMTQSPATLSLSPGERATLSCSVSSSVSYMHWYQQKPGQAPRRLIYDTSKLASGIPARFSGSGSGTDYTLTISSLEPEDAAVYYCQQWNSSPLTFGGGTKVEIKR
Return: 1.64

Enquiry: Another: 5886-156-H1L0 (antibody, human IgG4 S228P, kappa, V domains shown, Humanized antibody expressed in CHO-K1, purified by protein A) VH: QVQLQESGPGLVKPSQTLSLTCTVSGYSITSDYAWNWIRQPPGKGLEWIGYIDYSGSTTYNPSLKSRVTISRDTSKNQFSLKLSSVTAADTAVYYCASTVIDSMDYWGQGTLVTVSS VL: DIVLTQSPASLAVSPGQRATITCRASKSVSTSGHSYMHWYQQKPGQPPKLLIYLASNLESGVPARFSGSGSGTDFTLTINPVEANDTANYYCQHSREFPFTFGQGTKVEIKR
Return: 4.05

Enquiry: What about this binder? 5888-116-H0L1 (antibody, human IgG4 S228P, kappa, V domains shown, Humanized antibody) VH: QVQLVQSGAEVKKPGASVKVSCKASGYTFTDSEMYWVRQAPGQGLEWMGAIDPETGDTAFNQKFKGRVTMTRDTSTSTVYMELSSLRSEDTAVYYCARAFDNDNDDGFAYWGQGTMVTVSS VL: DIQMTQSPSSLSASVGDRVTITCSASSSVNYMHWYQQKPGKAPKRLIYDTSKLASGVPSRFSGSGSGTDYTFTISSLQPEDAATYYCQQWSSNPLTFGQGTKLEIKR
Return: 0.832
